Where do the numbers come from? From patent US20220177596A1.

- tested-system: T1, human-CD40 monomer (human, UniProt P25942 21-193, limits assumed)
- T1 construct: also called hCD40-monomer; human-CD40-monomer protein
- T1 sequence (P25942 21-193 limits assumed): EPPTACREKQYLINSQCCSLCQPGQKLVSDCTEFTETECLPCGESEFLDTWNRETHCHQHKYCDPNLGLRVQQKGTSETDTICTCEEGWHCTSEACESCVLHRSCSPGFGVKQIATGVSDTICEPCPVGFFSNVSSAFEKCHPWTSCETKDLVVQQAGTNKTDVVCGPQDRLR
- assay-remarks: SPR 2 pt screen, Ab on protein A
- Description: The VH sequences were formatted in the context of an IgG1.3f isotype. The Vκ sequences were formatted as a full light chain with a common CL sequence. All 55 combinations of these humanized HC and LC constructs, as well as the chimeric Y1238 molecule were expressed as 3 ml supernatants for binding analysis by SPR. […]
measured-property: kon

binder | kon
humanized Y1238 hz18 (hz-HC4 / hz-LC3), IgG1.3f (antibody, V domains shown, IgG1.3f heavy constant, common CL; expression supernatant; also called Sup 18) VH: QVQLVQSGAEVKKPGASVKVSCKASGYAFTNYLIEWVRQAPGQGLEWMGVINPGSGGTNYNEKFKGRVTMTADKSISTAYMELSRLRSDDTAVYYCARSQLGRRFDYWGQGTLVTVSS VL: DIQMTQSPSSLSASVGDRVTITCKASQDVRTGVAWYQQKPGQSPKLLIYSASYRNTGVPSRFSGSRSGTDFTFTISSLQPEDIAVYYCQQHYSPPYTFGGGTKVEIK | 46000 M⁻¹ s⁻¹

# evaluate next
The value of kon measured for the binder humanized Y1238 hz17 (hz-HC4 / hz-LC2), IgG1.3f (antibody, V domains shown, IgG1.3f heavy constant, common CL; expression supernatant; also called Sup 17) VH: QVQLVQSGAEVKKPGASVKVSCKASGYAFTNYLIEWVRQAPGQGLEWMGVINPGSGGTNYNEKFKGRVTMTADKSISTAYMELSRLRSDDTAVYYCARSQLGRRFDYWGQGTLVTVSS VL: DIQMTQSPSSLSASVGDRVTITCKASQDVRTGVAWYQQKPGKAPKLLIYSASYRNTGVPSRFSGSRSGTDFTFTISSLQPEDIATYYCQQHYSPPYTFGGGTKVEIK turned out to be 42000 M⁻¹ s⁻¹
